Assignment: determine reported log2 fold change of degron read counts for the given sequences.
Molecular target: T1, CRBN, Q96SW2;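 further: pooled lentiviral library of zinc finger degron-EGFP fusions in mCherry-positive Jurkat cells, FACS-sorted after compound exposure, with degron abundance counted by next-generation sequencing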
T1 chain: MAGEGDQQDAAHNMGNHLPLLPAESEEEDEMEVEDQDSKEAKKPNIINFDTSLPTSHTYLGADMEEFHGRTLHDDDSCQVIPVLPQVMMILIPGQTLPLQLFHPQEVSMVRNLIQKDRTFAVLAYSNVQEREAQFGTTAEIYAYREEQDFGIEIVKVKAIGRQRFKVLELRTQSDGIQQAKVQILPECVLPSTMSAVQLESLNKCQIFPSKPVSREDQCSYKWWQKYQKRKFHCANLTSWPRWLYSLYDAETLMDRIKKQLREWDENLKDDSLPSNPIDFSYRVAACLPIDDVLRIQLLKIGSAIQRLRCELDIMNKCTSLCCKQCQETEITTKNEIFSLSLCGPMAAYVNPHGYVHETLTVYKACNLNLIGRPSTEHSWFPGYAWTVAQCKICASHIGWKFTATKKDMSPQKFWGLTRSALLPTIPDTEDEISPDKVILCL
Experiment: log2 fold change of degron read counts, EGFP-low vs EGFP+ sorted cells (limma voom), compound-induced degradation; higher = more compound-induced degradation of the degron-EGFP fusion; degrons are variants of IKZF1/3 zinc finger 2; compound dose not given here
Details: Jurkat; 18 h; compound: compound 33 (diphenyl IMiD analogue)
Over roughly 8,300 sequences, “log2 fold change of degron read counts, EGFP-low vs EGFP+ sorted cells (limma voom), compound-induced degradation” has its median near -1.1; the highest 2% begin near 3.2. This excerpt belongs to a sample that is enriched for the highest values.
Please state the value as a number alone, without comment.

# input sequence: FCCPICGAMFTQKGNLLRHIKL [46F_47C_49P_50I_52G_53A_54M_55F_67L_, Q9UKT9] ; wanted: its log2 fold change of degron read counts
2.22

# iterate: FVCNQCGAAFTQKGNLLRHIKL [46F_47V_49N_50Q_52G_53A_54A_55F_67L_, Q9UKT9]
-0.293

# iterate: FICPICGALFTQKGNLLRHIKL [46F_47I_49P_50I_52G_53A_54L_55F_67L_, Q9UKT9]
1.39

# iterate: FECPQCGAVFTQKGNLLRHIKL [46F_47E_49P_50Q_52G_53A_54V_55F_67L_, Q9UKT9]
0.278
